We begin with a simple list: items and their reported Kd.
molecular target: FGFR3 (V555M) (Homo sapiens (Human), UniProt P22607, V555M); assay: Kinase assay, binding constants (Kd), kinase-tagged T7 phage, qPCR; details: V555M mutant
Sequence (P22607 23-806 V555M): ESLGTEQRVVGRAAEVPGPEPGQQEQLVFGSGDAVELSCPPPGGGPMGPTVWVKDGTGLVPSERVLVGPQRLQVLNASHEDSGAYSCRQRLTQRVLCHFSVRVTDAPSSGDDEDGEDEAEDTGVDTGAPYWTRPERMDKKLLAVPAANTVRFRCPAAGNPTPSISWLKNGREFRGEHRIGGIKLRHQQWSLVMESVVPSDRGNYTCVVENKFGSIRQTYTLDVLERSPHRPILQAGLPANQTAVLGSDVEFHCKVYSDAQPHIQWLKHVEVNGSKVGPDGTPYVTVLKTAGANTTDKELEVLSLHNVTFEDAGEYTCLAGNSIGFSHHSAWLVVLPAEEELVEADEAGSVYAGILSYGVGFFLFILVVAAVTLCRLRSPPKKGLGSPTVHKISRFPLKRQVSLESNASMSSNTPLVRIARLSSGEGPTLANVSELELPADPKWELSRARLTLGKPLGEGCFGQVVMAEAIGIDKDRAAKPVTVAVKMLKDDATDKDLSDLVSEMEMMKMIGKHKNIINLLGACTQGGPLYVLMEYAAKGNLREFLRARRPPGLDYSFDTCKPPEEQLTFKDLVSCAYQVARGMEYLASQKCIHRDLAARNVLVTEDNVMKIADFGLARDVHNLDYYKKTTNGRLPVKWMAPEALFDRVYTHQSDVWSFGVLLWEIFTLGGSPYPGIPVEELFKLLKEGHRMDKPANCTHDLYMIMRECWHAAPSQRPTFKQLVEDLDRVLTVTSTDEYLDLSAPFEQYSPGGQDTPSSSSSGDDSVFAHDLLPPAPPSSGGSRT

// known answers, use as guide
CCOC(=O)N1CC2(C1)CN(c1ccc(-c3n[nH]c4ccc(O[C@@H](C)c5c(Cl)cnc(F)c5Cl)cc34)cn1)C2 [Example 193]: 100 to 300 nM
C[C@@H](Oc1ccc2[nH]nc(-c3ccc(N4CCN5CCC[C@@H]5C4)nc3)c2c1)c1c(Cl)cncc1Cl [Example 184]: 1 to 20 nM
C[C@@H](Oc1ccc2[nH]nc(-c3cnc(N4CCN(C(=O)N5CCN(C)CC5)CC4)nc3)c2c1)c1c(Cl)cncc1Cl [Example 15]: 1 to 20 nM

[in] Which measured Kd value corresponds to C[C@@H](Oc1ccc2[nH]nc(-c3ccc(N4CC5(CCN(S(C)(=O)=O)C5)C4)nc3)c2c1)c1c(Cl)cncc1Cl [Example 163] ?
[out] 1 to 20 nM

###

We begin with a simple list: items and their reported Kd.
biological target: FGFR1 (Homo sapiens (Human), UniProt P11362); test: Kinase assay, binding constants (Kd), kinase-tagged T7 phage, qPCR
Sequence (P11362 22-822): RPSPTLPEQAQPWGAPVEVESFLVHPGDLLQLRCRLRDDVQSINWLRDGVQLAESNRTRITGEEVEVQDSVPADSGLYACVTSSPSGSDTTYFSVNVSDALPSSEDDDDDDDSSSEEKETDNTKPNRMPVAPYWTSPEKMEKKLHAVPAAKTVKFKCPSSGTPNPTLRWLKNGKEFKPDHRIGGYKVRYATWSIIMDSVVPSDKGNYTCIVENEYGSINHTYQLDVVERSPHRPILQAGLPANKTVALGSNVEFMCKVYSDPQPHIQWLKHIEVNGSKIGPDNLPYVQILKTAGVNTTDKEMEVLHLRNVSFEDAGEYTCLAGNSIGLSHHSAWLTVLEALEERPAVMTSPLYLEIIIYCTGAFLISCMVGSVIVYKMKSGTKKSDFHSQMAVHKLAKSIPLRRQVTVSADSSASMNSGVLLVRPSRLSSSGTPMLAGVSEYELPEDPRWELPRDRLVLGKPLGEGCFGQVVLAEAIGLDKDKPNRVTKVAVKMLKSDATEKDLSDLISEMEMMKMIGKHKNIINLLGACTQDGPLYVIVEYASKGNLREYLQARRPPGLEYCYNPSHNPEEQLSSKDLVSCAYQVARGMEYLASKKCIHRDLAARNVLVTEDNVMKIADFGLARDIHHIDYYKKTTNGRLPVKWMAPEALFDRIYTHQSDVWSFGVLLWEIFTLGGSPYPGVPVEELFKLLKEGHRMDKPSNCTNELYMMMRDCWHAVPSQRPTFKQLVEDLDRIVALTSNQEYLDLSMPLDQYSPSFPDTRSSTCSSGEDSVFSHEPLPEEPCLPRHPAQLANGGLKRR

C[C@@H](Oc1cc2c(-c3cnc(N4CCC4)c(C#N)c3)n[nH]c2cc1Cl)c1c(Cl)cncc1Cl: > 300 nM

[in] Which measured Kd value corresponds to C[C@@H](Oc1ccc2[nH]nc(-c3cnc(N4CC5(CCCN(S(C)(=O)=O)C5)C4)c(C#N)c3)c2c1)c1c(Cl)cncc1Cl ?
[out] 100 to 300 nM

[in] Which measured Kd value corresponds to CCS(=O)(=O)N1CC2(CN(c3ccc(-c4n[nH]c5ccc(O[C@H](C)c6c(Cl)cnc(C)c6Cl)cc45)cn3)C2)C1 ?
[out] 20 to 100 nM

###

biological target: FGFR4 (Homo sapiens (Human), UniProt P22455); assay: Kinase assay, binding constants (Kd), kinase-tagged T7 phage, qPCR
Sequence (P22455 22-802): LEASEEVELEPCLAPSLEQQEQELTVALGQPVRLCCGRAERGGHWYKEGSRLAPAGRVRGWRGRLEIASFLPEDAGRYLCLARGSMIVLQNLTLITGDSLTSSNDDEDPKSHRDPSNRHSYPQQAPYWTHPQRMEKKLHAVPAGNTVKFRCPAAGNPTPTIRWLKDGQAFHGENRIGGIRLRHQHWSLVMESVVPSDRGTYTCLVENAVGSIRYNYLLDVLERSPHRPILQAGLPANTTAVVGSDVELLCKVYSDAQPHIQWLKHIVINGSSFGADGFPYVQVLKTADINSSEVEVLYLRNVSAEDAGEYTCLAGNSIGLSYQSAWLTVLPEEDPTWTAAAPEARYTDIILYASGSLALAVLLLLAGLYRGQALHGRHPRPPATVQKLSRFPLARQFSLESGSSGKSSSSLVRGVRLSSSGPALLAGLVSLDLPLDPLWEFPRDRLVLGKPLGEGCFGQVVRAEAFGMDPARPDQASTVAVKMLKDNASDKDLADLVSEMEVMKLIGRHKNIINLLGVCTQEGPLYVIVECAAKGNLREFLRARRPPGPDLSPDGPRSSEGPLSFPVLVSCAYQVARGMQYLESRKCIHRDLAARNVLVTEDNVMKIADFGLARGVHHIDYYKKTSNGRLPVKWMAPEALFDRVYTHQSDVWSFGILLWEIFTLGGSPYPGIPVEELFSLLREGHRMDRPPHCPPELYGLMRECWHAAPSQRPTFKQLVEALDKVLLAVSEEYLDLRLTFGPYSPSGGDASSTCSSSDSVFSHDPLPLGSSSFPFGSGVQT
readout.type: Kd

C[C@@H](Oc1ccc2[nH]nc(-c3ccc(N4CCN(S(=O)(=O)N5CCN(C)CC5)CC4)nc3)c2c1)c1c(Cl)cncc1Cl: 1 to 20 nM

[in] Which measured Kd value corresponds to COc1cc2[nH]nc(-c3cnc(N4CC5(COC5)C4)c(C#N)c3)c2cc1O[C@H](C)c1c(C)cnnc1C [Example 218] ?
[out] 1 to 20 nM

[in] Which measured Kd value corresponds to CC(C)N1CCC(n2cc(-c3n[nH]c4ccc(O[C@H](C)c5c(Cl)cncc5Cl)cc34)cn2)CC1 ?
[out] 20 to 100 nM

###

target: FGFR3-BAIAP2L1 Ba/F3 cells (Homo sapiens); assay: Ba/F3 cell viability assay (CellTiter-Glo 2.0), FGFR3-BAIAP2L1 Ba/F3; type: cell-based; details: read-out: Ba/F3 Cells FGFR3 (IC50 nM); FGFR3-BAIAP2L1 Ba/F3 cells, 48 hours, Cell Titer Glo 2.0
Sequence (P22607 23-806 limits assumed, change not shown): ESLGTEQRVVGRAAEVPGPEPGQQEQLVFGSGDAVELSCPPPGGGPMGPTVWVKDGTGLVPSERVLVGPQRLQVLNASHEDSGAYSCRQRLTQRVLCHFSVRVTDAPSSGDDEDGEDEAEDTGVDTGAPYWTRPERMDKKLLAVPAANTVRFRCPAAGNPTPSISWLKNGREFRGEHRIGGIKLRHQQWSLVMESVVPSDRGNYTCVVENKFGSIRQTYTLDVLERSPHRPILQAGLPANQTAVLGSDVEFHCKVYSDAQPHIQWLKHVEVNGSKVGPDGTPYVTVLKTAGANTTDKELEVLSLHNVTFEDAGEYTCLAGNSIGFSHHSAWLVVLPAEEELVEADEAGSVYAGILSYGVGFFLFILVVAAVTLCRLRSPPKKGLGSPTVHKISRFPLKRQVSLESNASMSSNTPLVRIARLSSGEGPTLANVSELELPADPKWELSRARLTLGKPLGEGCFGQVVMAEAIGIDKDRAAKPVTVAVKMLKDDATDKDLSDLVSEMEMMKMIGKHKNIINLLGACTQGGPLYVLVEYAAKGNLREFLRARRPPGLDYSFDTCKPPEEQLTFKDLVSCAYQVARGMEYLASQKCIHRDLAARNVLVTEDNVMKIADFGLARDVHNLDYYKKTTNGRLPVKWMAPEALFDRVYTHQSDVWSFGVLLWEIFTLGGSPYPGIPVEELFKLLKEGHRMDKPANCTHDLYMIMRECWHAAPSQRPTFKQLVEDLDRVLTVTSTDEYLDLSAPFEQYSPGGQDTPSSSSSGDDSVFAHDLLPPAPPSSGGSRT
readout.type: IC50

// known answers, use as guide
C[C@@H](Oc1ccc2[nH]nc(-c3cnc(N4CCN(C(=O)N(C)C)CC4)nc3)c2c1)c1c(Cl)cncc1Cl [Example 19]: 1 to 20 nM
CCC(=O)N1CCN(c2ccc(-c3n[nH]c4ccc(O[C@H](C)c5c(Cl)cncc5Cl)cc34)cn2)CC1 [Example 9]: 1 to 20 nM
C[C@@H](Oc1ccc2[nH]nc(-c3ccc(N4CC5(CCS(=O)(=O)CC5)C4)nc3)c2c1)c1c(Cl)cncc1Cl [Example 113]: 1 to 20 nM
C[C@H](Oc1ccc2[nH]nc(-c3ccc(N4CC5(C4)CN(S(C)(=O)=O)C5)nc3)c2c1)c1c(Cl)cncc1Cl [Example 160]: 100 to 300 nM
COC(=O)N1CC2(C1)CN(c1ncc(-c3n[nH]c4ccc(O[C@H](C)c5c(C)cnnc5C)cc34)cn1)C2 [Example 143]: 100 to 300 nM
C[C@@H](Oc1ccc2[nH]nc(-c3ccc(N4CCN(C(=O)N5CCN(C)CC5)CC4)nc3)c2c1)c1c(Cl)cncc1Cl [Example 4]: 1 to 20 nM

For the next question, use this compound.
[in] Which measured IC50 value corresponds to C[C@@H](Oc1ccc2[nH]nc(-c3cnn(C4CCN(C5COC5)CC4)c3)c2c1)c1cc(F)cc(F)c1 [Example 168] ?
[out] 20 to 100 nM

###

Molecular target: FGFR3 (Homo sapiens (Human), UniProt P22607)
Sequence (P22607 23-806): as the sequence (P22607 23-806 limits assumed, change not shown) above
Experiment: Kinase assay, binding constants (Kd), kinase-tagged T7 phage, qPCR
Description: Kinase-tagged T7 phage strains were prepared in an E. coli host derived from the BL21 strain. E. coli were grown to log-phase and infected with T7 phage and incubated with shaking at 32° C. until lysis. The lysates were centrifuged and filtered to remove cell debris. […] Test compounds were prepared as 111λ stocks in 10000 DMS0. Kds were determined using an 11-point 3-fold compound dilution series with three DMSO control points. […] The kinase concentration in the eluates was measured by qPCR. […]
We begin with a simple list: items and their reported Kd.

COc1cc2[nH]nc(-c3cnc(N4CC5CC(C4)N5CC(C)(C)O)c(C)c3)c2cc1O[C@H](C)c1c(C)cnnc1C: 1 to 20 nM
COC(=O)N1CC2(C1)CN(c1ccc(-c3n[nH]c4ccc(O[C@@H](C)c5c(Cl)cnc(F)c5Cl)cc34)cn1)C2: 100 to 300 nM
C[C@@H](Oc1ccc2[nH]nc(-c3cnc(N4CC5(CNC5)C4)nc3)c2c1)c1c(Cl)cncc1Cl: 1 to 20 nM
Cc1cc2[nH]nc(-c3cnc(N4CC5(C4)CN(S(C)(=O)=O)C5)c(F)c3)c2cc1O[C@H](C)c1c(Cl)cnnc1Cl: 1 to 20 nM
C[C@@H](Oc1ccc2[nH]nc(-c3ccc(N4CC(C(F)F)C4)nc3)c2c1)c1c(Cl)cncc1Cl: 1 to 20 nM
C[C@@H](Oc1ccc2[nH]nc(-c3cnc(N4CCC5(CCCN5C)CC4)nc3)c2c1)c1c(Cl)cncc1Cl: 1 to 20 nM

For the next question, use this compound.
[in] Which measured Kd value corresponds to Cc1cnnc(C)c1[C@@H](C)Oc1ccc2[nH]nc(-c3ccc(N4CCN5CCC[C@@H]5C4)nc3)c2c1 ?
[out] 1 to 20 nM

###

target: FGFR3 (V555M) (Homo sapiens (Human), UniProt P22607, V555M); test: Kinase assay, binding constants (Kd), kinase-tagged T7 phage, qPCR; details: V555M mutant
We begin with a simple list: items and their reported Kd.

[in] Which measured Kd value corresponds to C[C@@H](Oc1ccc2[nH]nc(-c3ccc(N4CCN(C(N)=O)C5(CC5)C4)nc3)c2c1)c1c(Cl)cncc1Cl ?
[out] 1 to 20 nM

[in] Which measured Kd value corresponds to C[C@@H](Oc1ccc2[nH]nc(-c3ccc(N4CC5(CCS(=O)(=O)C5)C4)nc3)c2c1)c1c(Cl)cncc1Cl ?
[out] 1 to 20 nM

[in] Which measured Kd value corresponds to COc1cc2[nH]nc(-c3cnc(N4CC[C@H]4C)c(F)c3)c2cc1O[C@H](C)c1c(Cl)cncc1Cl ?
[out] 1 to 20 nM

[in] Which measured Kd value corresponds to C[C@@H](Oc1ccc2[nH]nc(-c3cnn(C4CCN(S(C)(=O)=O)CC4)c3)c2c1)c1c(Cl)cncc1Cl ?
[out] 1 to 20 nM

[in] Which measured Kd value corresponds to COc1cc2[nH]nc(-c3cnc(N4CC5(COC5)C4)c(C)c3)c2cc1O[C@H](C)c1c(C)cnnc1C ?
[out] 1 to 20 nM

[in] Which measured Kd value corresponds to Cc1cnnc(C)c1[C@H](C)Oc1ccc2[nH]nc(-c3cnc(N4CC5(CCS(=O)(=O)C5)C4)nc3)c2c1 ?
[out] > 300 nM

[in] Which measured Kd value corresponds to CC(C)N1CC2(CN(c3ccc(-c4n[nH]c5ccc(O[C@H](C)c6c(Cl)cncc6Cl)cc45)cn3)C2)C1 ?
[out] 1 to 20 nM

###

We begin with a simple list: items and their reported Kd.
molecular target: FGFR3 (V555M) (Homo sapiens (Human), UniProt P22607, V555M); assay: Kinase assay, binding constants (Kd), kinase-tagged T7 phage, qPCR; details: V555M mutant

COc1cc2[nH]nc(-c3cnc(N4CCC4)c(C#N)c3)c2cc1O[C@H](C)c1c(Cl)cnnc1Cl [Example 360]: > 300 nM
C[C@@H](Oc1ccc2[nH]nc(-c3cnc(N4CC5(CCS(=O)(=O)C5)C4)nc3)c2c1)c1c(Cl)cncc1Cl [Example 122]: 1 to 20 nM
Cc1cc(-c2n[nH]c3ccc(O[C@H](C)c4c(Cl)cnc(C)c4Cl)cc23)cnc1N1CC2(CCOC2)C1 [Example 217]: 1 to 20 nM
COc1cc2[nH]nc(-c3cnc(N4CC5(C4)CN(S(C)(=O)=O)C5)c(C#N)c3)c2cc1O[C@H](C)c1c(Cl)cnc(C)c1Cl [Example 341]: 1 to 20 nM
C[C@H](Oc1ccc2[nH]nc(-c3ccc(N4CC5(C4)CN(S(C)(=O)=O)C5)nc3)c2c1)c1c(Cl)cnc(F)c1Cl [Example 199]: 20 to 100 nM
C[C@@H](Oc1ccc2[nH]nc(-c3ccc(N4CC5(C4)CN(S(C)(=O)=O)C5)nc3)c2c1)c1c(Cl)cnc(F)c1Cl [Example 197]: 1 to 20 nM
C[C@@H](Oc1ccc2[nH]nc(-c3cnc(N4CCC5(CCC(=O)N5C)CC4)nc3)c2c1)c1c(Cl)cncc1Cl [Example 54]: 1 to 20 nM
Cc1ncc(Cl)c([C@@H](C)Oc2cc3c(-c4ccc(N5CC6(C5)CN(S(C)(=O)=O)C6)nc4)n[nH]c3cc2F)c1Cl [Example 266]: 1 to 20 nM

[in] Query Kd on FGFR3 (V555M) (Homo sapiens (Human), UniProt P22607, V555M) for C[C@@H](Oc1ccc2[nH]nc(-c3cnc(N4CCC5(CCC(=O)N5)CC4)nc3)c2c1)c1c(Cl)cncc1Cl [Example 48]
[out] 1 to 20 nM

[in] Query Kd on FGFR3 (V555M) (Homo sapiens (Human), UniProt P22607, V555M) for C[C@@H](Oc1ccc2[nH]nc(-c3ccc(N4CC5(COC5)C4)nc3)c2c1)c1c(Cl)cnnc1Cl [Example 229]
[out] 20 to 100 nM

[in] Query Kd on FGFR3 (V555M) (Homo sapiens (Human), UniProt P22607, V555M) for Cc1ncc(Cl)c([C@@H](C)Oc2ccc3[nH]nc(-c4cnn(C5CCOCC5)c4)c3c2)c1Cl [Example 104]
[out] 1 to 20 nM

[in] Query Kd on FGFR3 (V555M) (Homo sapiens (Human), UniProt P22607, V555M) for C[C@@H](Oc1ccc2[nH]nc(-c3cnn(C4CCS(=O)(=O)CC4)c3)c2c1)c1cc(F)cc(F)c1 [Example 171]
[out] 1 to 20 nM

[in] Query Kd on FGFR3 (V555M) (Homo sapiens (Human), UniProt P22607, V555M) for CC(C)N1CCC(n2cc(-c3n[nH]c4ccc(O[C@H](C)c5c(Cl)cncc5Cl)cc34)cn2)CC1 [Example 83]
[out] 1 to 20 nM

[in] Query Kd on FGFR3 (V555M) (Homo sapiens (Human), UniProt P22607, V555M) for C[C@@H](Oc1ccc2[nH]nc(-c3cnn(C4CCN(C(N)=O)CC4)c3)c2c1)c1c(Cl)cncc1Cl [Example 68]
[out] 1 to 20 nM
